Form field: CC50 (one value per entry).
Test: Cytotoxicity in human CEM/0 cells assessed as reduction in cell viability incubated for 4 to 5 days
Settings: ccrf-cem
Measure: CC50

[[record]]
input_smiles = "Nc1nc(=O)n([C@@H]2CS[C@H](CO)O2)cc1F"
observed_result = "> 100 µM"

[[record]]
input_smiles = "Cc1cn([C@H]2C=C[C@@H](CO)O2)c(=O)[nH]c1=O"
observed_result = "> 50 µM"


---

Test: Cytotoxicity in human CEM/0 cells assessed as reduction in cell viability incubated for 4 to 5 days
Settings: CEM/0 cells
Form field: CC50 (one value per entry).
Measure: CC50 (µM)

[[record]]
compound = "CCCCCCCCCCCCCCCCOC(=O)Oc1ccc(COP(=O)(OCc2ccc(OC(=O)CCCC)cc2)OP(=O)(O)OP(=O)(O)OC[C@H]2O[C@@H](n3cc(C)c(=O)[nH]c3=O)C[C@@H]2N=[N+]=[N-])cc1.N.N (stereo partly drawn)"
measure = "CC50"
measurement_qualifier = "="
observed_result = 42

[[record]]
compound = "CCCCCCCCCCCCCCCCOC(=O)Oc1ccc(COP(=O)(OCc2ccc(OC(=O)CC)cc2)OP(=O)(O)OP(=O)(O)OC[C@@H]2O[C@H](n3cc(F)c(N)nc3=O)CS2)cc1.N.N (stereo partly drawn)"
measure = "CC50"
measurement_qualifier = "="
observed_result = 35

[[record]]
compound = "O=c1[nH]cnc2c1ncn2[C@H]1CC[C@@H](CO)O1"
measure = "CC50"
measurement_qualifier = ">"
observed_result = 250


---

Form field: CC50 (one value per entry).
Experiment: Cytotoxicity in human CEM/0 cells assessed as reduction in cell viability incubated for 4 to 5 days
Conditions: CEM/0 cells
Measure: CC50 (µM)

[[record]]
compound = "O=c1[nH]c(=O)n([C@H]2C[C@H](F)[C@@H](CO)O2)cc1Cl"
measure = "CC50"
measurement_unit = "µM"
measurement_qualifier = "="
observed_result = 188

[[record]]
compound = "Cc1cn([C@H]2C[C@H](N=[N+]=[N-])[C@@H](CO)O2)c(=O)[nH]c1=O"
measure = "CC50"
measurement_unit = "µM"
measurement_qualifier = ">"
observed_result = 100

[[record]]
compound = "CCCCCCCCCCCCCCCCOC(=O)Oc1ccc(COP(=O)(OCc2ccc(OC(=O)CCCC)cc2)OP(=O)(O)OP(=O)(O)OC[C@H]2O[C@@H](n3cc(Cl)c(=O)[nH]c3=O)C[C@@H]2F)cc1.N.N (stereo partly drawn)"
measure = "CC50"
measurement_unit = "µM"
measurement_qualifier = "="
observed_result = 42

[[record]]
compound = "[N-]=[N+]=N[C@@H]1C[C@H](n2cc(Cl)c(=O)[nH]c2=O)O[C@@H]1CO"
measure = "CC50"
measurement_unit = "µM"
measurement_qualifier = ">"
observed_result = 100

[[record]]
compound = "CCCCCCCCCCCCCCCCOC(=O)Oc1ccc(COP(=O)(OCc2ccc(OC(=O)CC)cc2)OP(=O)(O)OP(=O)(O)OC[C@H]2O[C@@H](n3cc(C)c(=O)[nH]c3=O)C[C@@H]2N=[N+]=[N-])cc1.N.N (stereo partly drawn)"
measure = "CC50"
measurement_unit = "µM"
measurement_qualifier = "="
observed_result = 48

[[record]]
compound = "CCCCCCCCCCCCCCCCOC(=O)Oc1ccc(COP(=O)(OCc2ccc(OC(=O)CCCC)cc2)OP(=O)(O)OP(=O)(O)OC[C@@H]2CC[C@H](n3cnc4c(=O)[nH]cnc43)O2)cc1.N.N (stereo partly drawn)"
measure = "CC50"
measurement_unit = "µM"
measurement_qualifier = "="
observed_result = 43

[[record]]
compound = "[N-]=[N+]=N[C@@H]1C[C@H](n2ccc(=O)[nH]c2=O)O[C@@H]1CO"
measure = "CC50"
measurement_unit = "µM"
measurement_qualifier = ">"
observed_result = 250

[[record]]
compound = "CCCCCCCCCCCCCCCCOC(=O)Oc1ccc(COP(=O)(OCc2ccc(OC(=O)CCCC)cc2)OP(=O)(O)OP(=O)(O)OC[C@@H]2O[C@H](n3cc(F)c(N)nc3=O)CS2)cc1.N.N (stereo partly drawn)"
measure = "CC50"
measurement_unit = "µM"
measurement_qualifier = "="
observed_result = 40.5

[[record]]
compound = "Cc1cn([C@H]2C[C@H](O)[C@@H](CO)O2)c(=O)[nH]c1=O"
measure = "CC50"
measurement_unit = "µM"
measurement_qualifier = "="
observed_result = 10.6

[[record]]
compound = "CCCCCCCCCCCCCCCCOC(=O)Oc1ccc(COP(=O)(OCc2ccc(OC(=O)CCCC)cc2)OP(=O)(O)OP(=O)(O)OC[C@H]2O[C@@H](n3cc(/C=C/Br)c(=O)[nH]c3=O)C[C@@H]2O)cc1.N.N (stereo partly drawn)"
measure = "CC50"
measurement_unit = "µM"
measurement_qualifier = "="
observed_result = 43

[[record]]
compound = "O=c1[nH]c(=O)n([C@H]2C[C@H](O)[C@@H](CO)O2)cc1/C=C/Br"
measure = "CC50"
measurement_unit = "µM"
measurement_qualifier = "="
observed_result = 207

[[record]]
compound = "CCCCCCCCCCCCCCCCOC(=O)Oc1ccc(COP(=O)(OCc2ccc(OC(=O)CC)cc2)OP(=O)(O)OP(=O)(O)OC[C@H]2C[C@@H](n3cc(C)c(=O)[nH]c3=O)C[C@@H]2O)cc1.N.N (stereo partly drawn)"
measure = "CC50"
measurement_unit = "µM"
measurement_qualifier = "="
observed_result = 36

[[record]]
compound = "CCCCCCCCCCCCCCCCOC(=O)Oc1ccc(COP(=O)(OCc2ccc(OC(=O)CC)cc2)OP(=O)(O)OP(=O)(O)OC[C@H]2O[C@@H](n3cc(C)c(=O)[nH]c3=O)C[C@@H]2O)cc1.N.N (stereo partly drawn)"
measure = "CC50"
measurement_unit = "µM"
measurement_qualifier = "="
observed_result = 14


---

Form field: EC50 (one value per entry).
Test system: Human immunodeficiency virus 1
Experiment: microbe, parasite or virus in culture
Assay type: functional, organism-based
Details: Human immunodeficiency virus 1, 3B, CCRF-CEM
Description: Antiviral activity against HIV1 3B infected in human CEM/0 cells assessed as inhibition of viral-induced giant cell formation incubated for 4 to 5 days by microscopy
Measure: EC50 (µM)

[[record]]
compound = "CCCCCCCCCCCCCCCCOC(=O)Oc1ccc(COP(=O)(OCc2ccc(OC(=O)CC)cc2)OP(=O)(O)OP(=O)(O)OC[C@H]2O[C@@H](n3cc(C)c(=O)[nH]c3=O)C[C@@H]2N=[N+]=[N-])cc1.N.N (some centres undefined)"
measure = "EC50"
measurement_unit = "µM"
measurement_qualifier = "="
observed_result = 0.0094

[[record]]
compound = "CCCCCCCCCCCCCCCCOC(=O)Oc1ccc(COP(=O)(OCc2ccc(OC(=O)CCCC)cc2)OP(=O)(O)OP(=O)(O)OC[C@@H]2CC[C@H](n3cnc4c(=O)[nH]cnc43)O2)cc1.N.N (some centres undefined)"
measure = "EC50"
measurement_unit = "µM"
measurement_qualifier = "="
observed_result = 0.93

[[record]]
compound = "O=c1[nH]cnc2c1ncn2[C@H]1CC[C@@H](CO)O1"
measure = "EC50"
measurement_unit = "µM"
measurement_qualifier = "="
observed_result = 16

[[record]]
compound = "O=c1[nH]c(=O)n([C@H]2C[C@H](F)[C@@H](CO)O2)cc1Cl"
measure = "EC50"
measurement_unit = "µM"
measurement_qualifier = ">"
observed_result = 250

[[record]]
compound = "Nc1nc(=O)n([C@@H]2CS[C@H](CO)O2)cc1F"
measure = "EC50"
measurement_unit = "µM"
measurement_qualifier = "="
observed_result = 0.01

[[record]]
compound = "CCCCCCCCCCCCCCCCOC(=O)Oc1ccc(COP(=O)(OCc2ccc(OC(=O)CC)cc2)OP(=O)(O)OP(=O)(O)OC[C@H]2O[C@@H](n3cc(C)c(=O)[nH]c3=O)C[C@@H]2O)cc1.N.N (some centres undefined)"
measure = "EC50"
measurement_unit = "µM"
measurement_qualifier = "="
observed_result = 10.8

[[record]]
compound = "CCCCCCCCCCCCCCCCOC(=O)Oc1ccc(COP(=O)(OCc2ccc(OC(=O)CCCC)cc2)OP(=O)(O)OP(=O)(O)OC[C@H]2O[C@@H](n3cc(C)c(=O)[nH]c3=O)C[C@@H]2N=[N+]=[N-])cc1.N.N (some centres undefined)"
measure = "EC50"
measurement_unit = "µM"
measurement_qualifier = "="
observed_result = 0.0037

[[record]]
compound = "CCCCCCCCCCCCCCCCOC(=O)Oc1ccc(COP(=O)(OCc2ccc(OC(=O)CC)cc2)OP(=O)(O)OP(=O)(O)OC[C@@H]2C=C[C@H](n3cc(C)c(=O)[nH]c3=O)O2)cc1 (some centres undefined)"
measure = "EC50"
measurement_unit = "µM"
measurement_qualifier = "="
observed_result = 0.027

[[record]]
compound = "Cc1cn([C@H]2C[C@H](O)[C@@H](CO)O2)c(=O)[nH]c1=O"
measure = "EC50"
measurement_unit = "µM"
measurement_qualifier = "="
observed_result = 4.11

[[record]]
compound = "CCCCCCCCCCCCCCCCOC(=O)Oc1ccc(COP(=O)(OCc2ccc(OC(=O)CCCC)cc2)OP(=O)(O)OP(=O)(O)OC[C@H]2O[C@@H](n3cc(/C=C/Br)c(=O)[nH]c3=O)C[C@@H]2O)cc1.N.N (some centres undefined)"
measure = "EC50"
measurement_unit = "µM"
measurement_qualifier = "="
observed_result = 1.49

[[record]]
compound = "Cc1cn([C@H]2C[C@H](N=[N+]=[N-])[C@@H](CO)O2)c(=O)[nH]c1=O"
measure = "EC50"
measurement_unit = "µM"
measurement_qualifier = "="
observed_result = 0.005

[[record]]
compound = "Cc1cn([C@H]2C=C[C@@H](CO)O2)c(=O)[nH]c1=O"
measure = "EC50"
measurement_unit = "µM"
measurement_qualifier = "="
observed_result = 0.43

[[record]]
compound = "[N-]=[N+]=N[C@@H]1C[C@H](n2ccc(=O)[nH]c2=O)O[C@@H]1CO"
measure = "EC50"
measurement_unit = "µM"
measurement_qualifier = ">"
observed_result = 250

[[record]]
compound = "CCCCCCCCCCCCCCCCOC(=O)Oc1ccc(COP(=O)(OCc2ccc(OC(=O)CC)cc2)OP(=O)(O)OP(=O)(O)OC[C@H]2C[C@@H](n3cc(C)c(=O)[nH]c3=O)C[C@@H]2O)cc1.N.N (some centres undefined)"
measure = "EC50"
measurement_unit = "µM"
measurement_qualifier = "="
observed_result = 0.52


Each recorded value in this set is attributed to ChEMBL document CHEMBL4610119.
